B1: KCTD10 (parent)
chain: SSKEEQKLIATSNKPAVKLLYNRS

Variants of: B1
Assay: protein stability index of a GFP-peptide fusion (GPS, HEK-293T) (PSI 1-6); higher = more stable;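 note: lentivirally expressed fusions sorted by FACS into six bins by GFP to DsRed ratio, PSI derived from sequencing read proportions per bin multiplied by bin number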
Conditions: c terminus: a fixed tail appended
Let's look at some variants and their measured protein stability index.
observed property: protein stability index

INSERT INTO measurements (mutation_string, recorded_value) VALUES
  ('S12C', 3.81),
  ('S24N', 4.2),
  ('L19H', 4.41),
  ('T11N', 3.92),
  ('N13V', 3.75),
  ('V17D', 4.41),
  ('K14I', 3.66),
  ('E5L', 2.83),
  ('L20T', 4.72),
  ('L8W', 3.79),
  ('L8K', 4.75),
  ('E4Q', 4.06),
  ('K18S', 4.39),
  ('L20P', 4.98),
  ('R23A', 3.99),
  ('S24F', 3.52),
  ('N13C', 2.31),
  ('A10K', 4.15),
  ('R23T', 3.7),
  ('S12P', 4.29),
  ('P15E', 4.53),
  ('K18R', 4.33),
  ('S1Y', 3.18),
  ('L20W', 3.35),
  ('Q6K', 3.1),
  ('Y21H', 4.46),
  ('K7Y', 3.29),
  ('S24A', 3.65),
  ('K14D', 4.57),
  ('E5V', 2.8),
  ('K3G', 3.32),
  ('S1I', 3.56),
  ('A16Q', 4.19),
  ('Y21I', 4.13),
  ('L8M', 4.43),
  ('K18A', 4.05),
  ('S24M', 3.52),
  ('K7Q', 4.25),
  ('K7C', 3.86),
  ('Q6A', 4.23),
  ('K3F', 3.83),
  ('S1H', 4.21),
  ('E5Y', 2.97),
  ('E4L', 3.52),
  ('E4C', 3.55),
  ('L19I', 4.59);
